Test: Cryoprotectant screen, sucrose lyophilization cycle
Type: physicochemical
Settings: PEGylated nanoparticles A, polymer 31.25 mg/mL (Doce. 1.5), cryoprotectant 100 mg/mL (3.2:1 w/w), reconstituted
Experimental: A cryoprotectant screen was performed as follows. These conditions are shown below in Table 21.
So I've got a bunch of molecules here, and I need their PDI values.
Give bare numbers.

The examples below pair each entry with its known result.
>  <molecule>
OC[C@H]1O[C@@](CO)(O[C@H]2O[C@H](CO)[C@@H](O)[C@H](O)[C@H]2O)[C@@H](O)[C@@H]1O

>  <PDI>
0.125

$$$$
>  <molecule>
OC[C@@H](O)[C@@H](O)[C@H](O)[C@H](O)CO

>  <PDI>
0.544

$$$$
>  <molecule>
OC[C@H]1O[C@H](O[C@H]2O[C@H](CO)[C@@H](O)[C@H](O)[C@H]2O)[C@H](O)[C@@H](O)[C@@H]1O

>  <PDI>
0.417

$$$$

Proceed to the following item.
Report measured PDI; entry is OC[C@H]1O[C@@H](O[C@H]2[C@H](O)[C@@H](O)C(O)O[C@@H]2CO)[C@H](O)[C@@H](O)[C@H]1O (stereo partly shown)
0.352

---

Experiment: Cryoprotectant screen, sucrose lyophilization cycle
Type: physicochemical
Conditions: PEGylated nanoparticles A, polymer 31.25 mg/mL (Doce. 1.5), cryoprotectant 100 mg/mL (3.2:1 w/w)

>  <compound>
OC[C@H]1O[C@@H](O[C@H]2[C@H](O)[C@@H](O)C(O)O[C@@H]2CO)[C@H](O)[C@@H](O)[C@H]1O (stereo partly shown)

>  <Recon. Solution Appearance>
cloudy

$$$$
>  <compound>
OC[C@H]1O[C@H](O[C@H]2O[C@H](CO)[C@@H](O)[C@H](O)[C@H]2O)[C@H](O)[C@@H](O)[C@@H]1O

>  <Recon. Solution Appearance>
cloudy

$$$$
>  <compound>
OC[C@@H](O)[C@@H](O)[C@H](O)[C@H](O)CO

>  <Recon. Solution Appearance>
cloudy

$$$$

---

Assay: Cryoprotectant screen, sucrose lyophilization cycle
Type: physicochemical
Conditions: PEGylated nanoparticles A, polymer 31.25 mg/mL (Doce. 1.5), cryoprotectant 100 mg/mL (3.2:1 w/w)

>  <molecule>
OC[C@H]1O[C@@H](O[C@H]2[C@H](O)[C@@H](O)C(O)O[C@@H]2CO)[C@H](O)[C@@H](O)[C@H]1O (stereo partly shown) [Lactose, lactose]

>  <Lyophilized preparation Appearance>
some

$$$$
>  <molecule>
OC[C@@H](O)[C@@H](O)[C@H](O)[C@H](O)CO [Mannitol, mannitol]

>  <Lyophilized preparation Appearance>
some

$$$$
>  <molecule>
OC[C@H]1O[C@@](CO)(O[C@H]2O[C@H](CO)[C@@H](O)[C@H](O)[C@H]2O)[C@@H](O)[C@@H]1O [Sucrose, sucrose]

>  <Lyophilized preparation Appearance>
good

$$$$
>  <molecule>
OC[C@H]1O[C@H](O[C@H]2O[C@H](CO)[C@@H](O)[C@H](O)[C@H]2O)[C@H](O)[C@@H](O)[C@@H]1O [Trehalose, trehalose]

>  <Lyophilized preparation Appearance>
good

$$$$

---

Assay: Cryoprotectant screen, sucrose lyophilization cycle
Type: physicochemical
Conditions: PEGylated nanoparticles A, polymer 31.25 mg/mL (Doce. 1.5), cryoprotectant 100 mg/mL (3.2:1 w/w), reconstituted
So I've got a bunch of molecules here, and I need their Zave values.
Numbers only, in nm.

The examples below pair each entry with its known result.
>  <molecule>
OC[C@H]1O[C@@H](O[C@H]2[C@H](O)[C@@H](O)C(O)O[C@@H]2CO)[C@H](O)[C@@H](O)[C@H]1O (stereo partly shown)

>  <assay.readout>
Zave

>  <numeric.value>
183.2

$$$$
>  <molecule>
OC[C@H]1O[C@H](O[C@H]2O[C@H](CO)[C@@H](O)[C@H](O)[C@H]2O)[C@H](O)[C@@H](O)[C@@H]1O

>  <assay.readout>
Zave

>  <numeric.value>
294.2

$$$$
>  <molecule>
OC[C@H]1O[C@@](CO)(O[C@H]2O[C@H](CO)[C@@H](O)[C@H](O)[C@H]2O)[C@@H](O)[C@@H]1O

>  <assay.readout>
Zave

>  <numeric.value>
94.72

$$$$

Proceed to the following item.
Report measured Zave; entry is `OC[C@@H](O)[C@@H](O)[C@H](O)[C@H](O)CO`
472.7
